Biological target: T1, IL-18 receptor (IL-18Rα/IL-18Rβ) on cells (HEK-Blue IL18R reporter cells, NK-92, KG-1) (human, UniProt Q13478 19-541; O95256 20-599)
T1 sequence (looked up) 1: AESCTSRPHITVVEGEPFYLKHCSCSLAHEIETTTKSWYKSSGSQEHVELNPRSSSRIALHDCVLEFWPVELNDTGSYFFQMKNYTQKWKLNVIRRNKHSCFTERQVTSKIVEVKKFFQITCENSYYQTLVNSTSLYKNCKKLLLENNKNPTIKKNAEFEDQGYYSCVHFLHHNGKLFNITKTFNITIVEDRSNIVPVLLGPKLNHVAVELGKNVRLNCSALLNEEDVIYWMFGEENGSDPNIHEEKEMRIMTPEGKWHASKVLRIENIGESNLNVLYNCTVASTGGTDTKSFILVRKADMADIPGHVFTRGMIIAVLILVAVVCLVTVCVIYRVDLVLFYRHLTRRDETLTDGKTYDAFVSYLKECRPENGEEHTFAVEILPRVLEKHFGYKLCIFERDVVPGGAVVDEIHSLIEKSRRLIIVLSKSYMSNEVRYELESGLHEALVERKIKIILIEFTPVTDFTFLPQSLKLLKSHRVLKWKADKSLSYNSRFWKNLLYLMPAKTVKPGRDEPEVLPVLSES
T1 sequence (looked up) 2: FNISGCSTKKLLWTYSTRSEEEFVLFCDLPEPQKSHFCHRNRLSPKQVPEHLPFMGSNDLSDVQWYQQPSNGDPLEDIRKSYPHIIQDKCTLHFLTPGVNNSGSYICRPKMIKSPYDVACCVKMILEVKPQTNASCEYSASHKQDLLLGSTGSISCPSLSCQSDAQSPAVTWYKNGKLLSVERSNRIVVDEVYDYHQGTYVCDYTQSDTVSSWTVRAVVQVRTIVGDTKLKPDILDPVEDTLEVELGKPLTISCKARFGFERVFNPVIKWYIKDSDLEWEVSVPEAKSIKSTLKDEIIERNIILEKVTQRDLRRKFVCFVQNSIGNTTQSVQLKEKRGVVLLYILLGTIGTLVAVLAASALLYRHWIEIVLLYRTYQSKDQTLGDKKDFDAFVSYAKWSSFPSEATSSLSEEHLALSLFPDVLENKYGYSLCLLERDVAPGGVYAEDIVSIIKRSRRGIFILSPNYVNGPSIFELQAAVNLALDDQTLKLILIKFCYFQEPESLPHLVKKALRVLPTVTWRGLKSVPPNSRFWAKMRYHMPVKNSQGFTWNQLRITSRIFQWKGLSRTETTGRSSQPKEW
Test: cell-based or functional assay
reported metric: EC50, HEK-Blue IL18R reporter cells (pM)
Hi! Could you send only the number? It should be in pM, unit omitted.

IL-18 polypeptide of SEQ ID NO: 59 (E6K, C38A, K53A) (ligand) YFGKLKSKLSVIRNLNDQVLFIDQGNRPLFEDMTDSDARDNAPRTIFIISMYADSQPRGMAVTISVKCEKISTLSCENKIISFKEMNPPDNIKDTKSDIIFFQRSVPGHDNKMQFESSSYEGYFLACEKERDLFKLILKKEDELGDRSIMFTVQNED; 0.268
IL-18 polypeptide C144 (ligand, also called V11I, C38A, K53A, T63A, C76A, C127A) YFGKLESKLSIIRNLNDQVLFIDQGNRPLFEDMTDSDARDNAPRTIFIISMYADSQPRGMAVAISVKCEKISTLSAENKIISFKEMNPPDNIKDTKSDIIFFQRSVPGHDNKMQFESSSYEGYFLAAEKERDLFKLILKKEDELGDRSIMFTVQNED; 0.17
IL-18 polypeptide C165 (ligand, also called V11I, C38A, S55R, C76A, C127A) YFGKLESKLSIIRNLNDQVLFIDQGNRPLFEDMTDSDARDNAPRTIFIISMYKDRQPRGMAVTISVKCEKISTLSAENKIISFKEMNPPDNIKDTKSDIIFFQRSVPGHDNKMQFESSSYEGYFLAAEKERDLFKLILKKEDELGDRSIMFTVQNED; 1.91
IL-18 polypeptide of SEQ ID NO: 34 (E06K, K53A, S55A) (ligand) YFGKLKSKLSVIRNLNDQVLFIDQGNRPLFEDMTDSDCRDNAPRTIFIISMYADAQPRGMAVTISVKCEKISTLSCENKIISFKEMNPPDNIKDTKSDIIFFQRSVPGHDNKMQFESSSYEGYFLACEKERDLFKLILKKEDELGDRSIMFTVQNED; 272
IL-18 polypeptide C142 (ligand, also called Y1M, E6K, V11I, C38A, K53A, T63A, C76A, C127A) MFGKLKSKLSIIRNLNDQVLFIDQGNRPLFEDMTDSDARDNAPRTIFIISMYADSQPRGMAVAISVKCEKISTLSAENKIISFKEMNPPDNIKDTKSDIIFFQRSVPGHDNKMQFESSSYEGYFLAAEKERDLFKLILKKEDELGDRSIMFTVQNED; 0.02
IL-18 polypeptide C157 (ligand, also called V11I, C38A, K53A, C76A, C127A, D132A) YFGKLESKLSIIRNLNDQVLFIDQGNRPLFEDMTDSDARDNAPRTIFIISMYADSQPRGMAVTISVKCEKISTLSAENKIISFKEMNPPDNIKDTKSDIIFFQRSVPGHDNKMQFESSSYEGYFLAAEKERALFKLILKKEDELGDRSIMFTVQNED; 1.95

Task: Consider the binder IL-18 polypeptide C161 (ligand, also called K8R, V11I, C38A, C76A, Q103E, C127A) YFGKLESRLSIIRNLNDQVLFIDQGNRPLFEDMTDSDARDNAPRTIFIISMYKDSQPRGMAVTISVKCEKISTLSAENKIISFKEMNPPDNIKDTKSDIIFFERSVPGHDNKMQFESSSYEGYFLAAEKERDLFKLILKKEDELGDRSIMFTVQNED and give its measured EC50, HEK-Blue IL18R reporter cells.
Output: 2.01
